test: compounds raising PGC1a acetylation signal, primary screen, PGC1a modulator project, cell-based, U2OS, AlphaScreen, signal-increasing mode (AID 651723)
run.conditions: overnight, at 15.6 µM, hits give high values
The whole screen tested about 350,000 compounds, of which about 740 (0.21%) were called active. This excerpt belongs to a sample that is enriched for actives.
Returns yes if the recorded activation is greater than or equal to 80%, and no otherwise.

* COc1ccc(NC(=O)C2(C)Cc3c(-c4cccc(NC(C)=O)c4)ccnc3O2)cc1 (stereo not given) | no
* CC(C)c1cc(C(=O)N/N=C/C(Br)=C/c2ccccc2)n[nH]1 | yes
* Cc1ccc(S(=O)(=O)Nc2ccc3c(c2)C(=O)N([C@H](C)CO)C[C@H](C)[C@H](CN(C)C(=O)NC(C)C)OCCCC[C@@H](C)O3)cc1 | no
* CCn1c(/C=C/c2ccc([N+](=O)[O-])o2)nc2ccccc2c1=O | yes
* CCCCC(=O)Nc1ccc(C(=O)NCCCn2ccnc2)cc1 | no
* c1ccc2c(-c3nn4nnnc4c4ccccc34)cccc2c1 | no
* CC[C@H]1CN2CCc3cc(OC)c(OC)cc3[C@@H]2C[C@@H]1C[C@H]1NCCc2cc(OC)c(OC)cc21 | no
* CCOCCc1nn2c(=O)cc(CSCC(=O)Nc3cccc(C)c3C)nc2s1 | no
* COc1cccc(CNC(=O)CCC2CCCN(Cc3ccc(OC(F)F)cc3)C2)c1 (stereo not given) | no
* CCOC(=O)C1=CC[C@@H](c2ccccc2)N(S(=O)(=O)c2ccc(C)cc2)[C@H]1c1ccc(CC)cc1 | no
* Cc1cc(C)c2c(-n3cccc3)c(C(=O)NNS(=O)(=O)c3ccc(F)cc3)sc2n1 | yes
* CN(C)c1ccc(-n2cccc2/C=N/n2cnnc2)cc1 | no
* C[C@@H]1CCCCO[C@@H](CN(C)CC2CC2)[C@H](C)CN([C@H](C)CO)C(=O)c2cc(NS(=O)(=O)c3ccccc3)ccc2O1 | no
* O=C(CSc1nnc(Cn2cnc3ccccc32)o1)c1ccccc1 | no
* CC(C)CCNc1nc(N2CCCC2)c2c(c1C#N)CCN(C)C2 | yes
* COc1ccc(C(=O)/C=C/c2cccnc2)c(OC)c1 | no
* COc1ccc(-c2ccc(CCC(=O)O)n2NC(=O)c2ccc(C(C)(C)C)cc2)cc1 | no
* Cc1cc(C(=O)N/N=C\C(Br)=C\c2ccccc2)c(C)o1 | yes
* O=[N+]([O-])c1ccc(C=Nc2ccc(Cl)cc2Cl)s1 | no
